Experiment: Toxicity liver stage against HepG2, at 10uM
Type: cell-based
Parameters: test concentration 10 uM, cell line HepG2-A16-CD81EGFP
Details: human, HepG2-A16-CD81EGFP cells; read-out: INHIBITION
This section presents compounds with their documented cytotoxicity at 10 µM values.
A number alone suffices; assume %.

Examples from the recorded data:
* CC(C)Cn1cc(NC(=O)NCC2CCN(c3ccccc3)C2)cn1 (centres undefined) | 2.53
* COc1cc(C(=O)Nc2nc(C)no2)cc(Cl)c1OC | -4.29
* Cc1ccc(C)c(OC2CCN(C(=O)c3ccc(O)nc3)CC2)c1 | 3.23
* Cc1sc(NC(=O)CN(C)S(C)(=O)=O)c(C#N)c1C | 4.7
* NC(=O)C1CN(C(=O)Nc2ccc(SC(F)(F)F)cc2)CCO1 (centres undefined) | -12.9

# lookup: cytotoxicity at 10 µM of Cc1cc(C(=O)N2CCC3(CC2)c2nc[nH]c2CCN3CC(C)C)no1
11.1

And what about the compound CCc1c(C(=O)NCC(=O)OCC2CC2)cnn1-c1ccc(C)cc1 ?
-3.81

And what about the compound O=C(c1ccncc1)N1CCN(C(=O)c2coc3ccccc23)CC1 ?
4.27

And what about the compound CN1CCCC1c1ccnc(C(=O)N(C)C2CCCCC2)c1 (centres undefined) ?
-21.5

And what about the compound CC(C)(C)NC(=O)[C@@H]1Cc2ccccc2CN1Cc1cccs1 ?
-2.14

Data credit: ChEMBL document CHEMBL4513216
